- Test system: HOP-62
- experimental protocol: NCI single dose (10 µM) SRB screen
- Assay type: cell-based, human
- measurement parameters: non-small cell lung cancer, 48 h
In this section, each of the compounds is paired with its reported GI% HOP-62.
Expressed in %, but write only the number.

Look over these answered cases.
compound: CCOC(=O)C1=C(C)NC(C)=C(C(=O)OCc2ccccc2)C1c1cccc(C#N)c1 (racemic) [Compound 2l]
GI% HOP-62 / %: 54
--
compound: CC1=C(C(=O)OCc2ccccc2)C(c2cccc(C#N)c2)C(C(=O)OCc2ccccc2)=C(C)N1 [Compound 1g]
GI% HOP-62 / %: 10

### Prompt Would you mind telling me what GI% HOP-62 value was observed for COC(=O)C1=C(C)NC(C)=C(C(=O)OCc2ccccc2)C1c1cccc(C#N)c1 (racemic) [Compound 2e] ?
### Response 16

###

- Test system: HCC-2998
- experimental protocol: NCI single dose (10 µM) SRB screen
- Type: cell-based, human
- measurement parameters: colon cancer, 48 h
reported endpoint: GI% HCC-2998

### Prompt Identify the measured GI% HCC-2998 of CCOC(=O)C1=C(C)NC(C)=C(C(=O)OCc2ccccc2)C1c1cccc(C#N)c1 (racemic) for HCC-2998.
### Response 29%

###

In this section, each of the compounds is paired with its reported GI% UACC-62.
- System: UACC-62
- experimental protocol: NCI single dose (10 µM) SRB screen
- Format: cell-based, human
- measurement parameters: melanoma, 48 h

Look over these answered cases.
compound: CCOC(=O)C1=C(C)NC(C)=C(C(=O)OCC)C1c1cccc(C#N)c1
GI% UACC-62: 20%

compound: CCOC(=O)C1=C(C)NC(C)=C(C(=O)OCc2ccccc2)C1c1cccc(C#N)c1 (racemic)
GI% UACC-62: 66%

compound: CC1=C(C(=O)OCC(C)C)C(c2cccc(C#N)c2)C(C(=O)OCC(C)C)=C(C)N1
GI% UACC-62: 23%

compound: CCCC1=C(C(=O)OCC)C(c2cccc(C#N)c2)C(C(=O)OC)=C(C)N1 (racemic)
GI% UACC-62: 21%

compound: COC(=O)C1=C(C)NC(C)=C(C(=O)OCc2ccccc2)C1c1cccc(C#N)c1 (racemic)
GI% UACC-62: 37%

compound: CC1=C(C(=O)OCc2ccccc2)C(c2cccc(C#N)c2)C(C(=O)OCc2ccccc2)=C(C)N1
GI% UACC-62: 38%

### Prompt Identify the measured GI% UACC-62 of CCOC(=O)C1=C(C)NC(C)=C(C(=O)OCC(C)C)C1c1cccc(C#N)c1 (racemic) for UACC-62.
### Response 27%

### Prompt Same lookup for CCOC(=O)C1=C(C)NC(C)=C(C(=O)OC(C)(C)C)C1c1cccc(C#N)c1 (racemic) , please.
### Response 10%

###

In this section, each of the compounds is paired with its reported HER-2 Potency.
- target desc: HER-2 (Homo sapiens)
- Sequence (P04626 23-1255): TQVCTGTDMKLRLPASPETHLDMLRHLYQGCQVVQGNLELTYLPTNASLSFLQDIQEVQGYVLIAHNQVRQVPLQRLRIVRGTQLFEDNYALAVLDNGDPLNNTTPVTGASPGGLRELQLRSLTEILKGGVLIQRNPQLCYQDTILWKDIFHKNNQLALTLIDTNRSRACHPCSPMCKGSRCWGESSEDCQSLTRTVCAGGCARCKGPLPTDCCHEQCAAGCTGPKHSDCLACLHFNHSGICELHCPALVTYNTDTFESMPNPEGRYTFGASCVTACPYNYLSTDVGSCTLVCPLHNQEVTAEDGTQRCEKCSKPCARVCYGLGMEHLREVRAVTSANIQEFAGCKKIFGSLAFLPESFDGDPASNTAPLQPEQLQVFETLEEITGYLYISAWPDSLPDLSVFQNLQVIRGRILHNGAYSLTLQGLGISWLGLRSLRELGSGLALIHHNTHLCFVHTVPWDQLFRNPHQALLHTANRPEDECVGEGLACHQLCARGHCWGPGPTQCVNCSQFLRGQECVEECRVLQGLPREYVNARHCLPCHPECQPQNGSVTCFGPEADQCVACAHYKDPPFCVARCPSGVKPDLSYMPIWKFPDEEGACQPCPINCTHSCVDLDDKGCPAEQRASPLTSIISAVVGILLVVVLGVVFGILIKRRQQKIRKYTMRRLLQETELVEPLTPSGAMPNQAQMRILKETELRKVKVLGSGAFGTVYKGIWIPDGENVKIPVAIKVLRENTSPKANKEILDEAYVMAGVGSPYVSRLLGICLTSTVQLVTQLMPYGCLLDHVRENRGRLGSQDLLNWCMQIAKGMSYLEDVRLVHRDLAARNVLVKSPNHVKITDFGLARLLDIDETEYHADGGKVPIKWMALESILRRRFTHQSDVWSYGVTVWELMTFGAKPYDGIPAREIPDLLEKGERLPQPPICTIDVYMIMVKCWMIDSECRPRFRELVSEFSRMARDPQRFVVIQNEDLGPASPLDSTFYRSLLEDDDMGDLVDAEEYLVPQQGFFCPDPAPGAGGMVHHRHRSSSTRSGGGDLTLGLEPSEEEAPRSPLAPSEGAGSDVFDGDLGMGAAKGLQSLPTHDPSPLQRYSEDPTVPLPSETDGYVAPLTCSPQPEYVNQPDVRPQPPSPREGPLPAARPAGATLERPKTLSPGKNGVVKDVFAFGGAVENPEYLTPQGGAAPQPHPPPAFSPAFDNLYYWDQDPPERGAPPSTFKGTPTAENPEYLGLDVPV
- experimental protocol: HER-2 kinase inhibitory activity
- Type: biochemical
- measurement parameters: (IC50 lapatinib/IC50 Compound)*100
Expressed in %, but write only the number.

compound: CCOC(=O)C1=C(C)NC(C)=C(C(=O)OCc2ccccc2)C1c1cccc(C#N)c1 (racemic)
HER-2 Potency / %: 89.10

### Prompt Would you mind telling me what HER-2 Potency value was observed for CC1=C(C(=O)OCc2ccccc2)C(c2cccc(C#N)c2)C(C(=O)OCc2ccccc2)=C(C)N1 ?
### Response 103.20

### Prompt Same lookup for COC(=O)C1=C(C)NC(C)=C(C(=O)OCc2ccccc2)C1c1cccc(C#N)c1 (racemic) , please.
### Response 95.13

### Prompt Same lookup for CS(=O)(=O)CCNCc1ccc(-c2ccc3ncnc(Nc4ccc(OCc5cccc(F)c5)c(Cl)c4)c3c2)o1 [Lapatinib, reference compound] , please.
### Response 100.0

###

- System: LOX IMVI
- experimental protocol: NCI single dose (10 µM) SRB screen
- Format: cell-based, human
- measurement parameters: melanoma, 48 h
reported endpoint: GI% LOX IMVI

### Prompt Would you mind telling me what GI% LOX IMVI value was observed for COC(=O)C1=C(C)NC(C)=C(C(=O)OCc2ccccc2)C1c1cccc(C#N)c1 (racemic) [Compound 2e] ?
### Response 61%

###

- System: HOP-62
- experimental protocol: NCI single dose (10 µM) SRB screen
- Format: cell-based, human
- measurement parameters: non-small cell lung cancer, 48 h
reported endpoint: GI% HOP-62

### Prompt Would you mind telling me what GI% HOP-62 value was observed for CC1=C(C(=O)OCC(C)C)C(c2cccc(C#N)c2)C(C(=O)OCC(C)C)=C(C)N1 ?
### Response 12%

###

In this section, each of the compounds is paired with its reported GI% MDA-MB-435.
- Test system: MDA-MB-435
- experimental protocol: NCI single dose (10 µM) SRB screen
- Format: cell-based, human
- measurement parameters: melanoma, 48 h

Look over these answered cases.
compound: COC(=O)C1=C(C)NC(C)=C(C(=O)OCc2ccccc2)C1c1cccc(C#N)c1 (racemic)
result: 35%

compound: CC1=C(C(=O)OCc2ccccc2)C(c2cccc(C#N)c2)C(C(=O)OCc2ccccc2)=C(C)N1
result: 36%

// moving on: another record for GI% MDA-MB-435
### Prompt Would you mind telling me what GI% MDA-MB-435 value was observed for CCOC(=O)C1=C(C)NC(C)=C(C(=O)OCC)C1c1cccc(C#N)c1 ?
### Response 42%

###

In this section, each of the compounds is paired with its reported GI% SN12C.
- Tested on: SN12C
- experimental protocol: NCI single dose (10 µM) SRB screen
- Format: cell-based, human
- measurement parameters: renal cancer, 48 h

compound: CC1=C(C(=O)OCc2ccccc2)C(c2cccc(C#N)c2)C(C(=O)OCc2ccccc2)=C(C)N1
GI% SN12C: 32%
//
compound: CCOC(=O)C1=C(C)NC(C)=C(C(=O)OCc2ccccc2)C1c1cccc(C#N)c1 (racemic)
GI% SN12C: 63%

// moving on: another record for GI% SN12C
### Prompt Would you mind telling me what GI% SN12C value was observed for CC1=C(C(=O)OCC(C)C)C(c2cccc(C#N)c2)C(C(=O)OCC(C)C)=C(C)N1 ?
### Response 10%

###

- System: T-47D
- experimental protocol: NCI single dose (10 µM) SRB screen
- Type: cell-based, human
- measurement parameters: breast cancer, 48 h
reported endpoint: GI% T-47D

molecule: COC(=O)C1=C(C)NC(C)=C(C(=O)OCc2ccccc2)C1c1cccc(C#N)c1 (racemic) [Compound 2e]
reported endpoint: GI% T-47D
result: 11%

### Prompt Identify the measured GI% T-47D of CCOC(=O)C1=C(C)NC(C)=C(C(=O)OCC)C1c1cccc(C#N)c1 [Compound 1b] for T-47D.
### Response 23%

###

- target desc: BTK (Homo sapiens, UniProt Q06187)
- Sequence (Q06187 whole entry): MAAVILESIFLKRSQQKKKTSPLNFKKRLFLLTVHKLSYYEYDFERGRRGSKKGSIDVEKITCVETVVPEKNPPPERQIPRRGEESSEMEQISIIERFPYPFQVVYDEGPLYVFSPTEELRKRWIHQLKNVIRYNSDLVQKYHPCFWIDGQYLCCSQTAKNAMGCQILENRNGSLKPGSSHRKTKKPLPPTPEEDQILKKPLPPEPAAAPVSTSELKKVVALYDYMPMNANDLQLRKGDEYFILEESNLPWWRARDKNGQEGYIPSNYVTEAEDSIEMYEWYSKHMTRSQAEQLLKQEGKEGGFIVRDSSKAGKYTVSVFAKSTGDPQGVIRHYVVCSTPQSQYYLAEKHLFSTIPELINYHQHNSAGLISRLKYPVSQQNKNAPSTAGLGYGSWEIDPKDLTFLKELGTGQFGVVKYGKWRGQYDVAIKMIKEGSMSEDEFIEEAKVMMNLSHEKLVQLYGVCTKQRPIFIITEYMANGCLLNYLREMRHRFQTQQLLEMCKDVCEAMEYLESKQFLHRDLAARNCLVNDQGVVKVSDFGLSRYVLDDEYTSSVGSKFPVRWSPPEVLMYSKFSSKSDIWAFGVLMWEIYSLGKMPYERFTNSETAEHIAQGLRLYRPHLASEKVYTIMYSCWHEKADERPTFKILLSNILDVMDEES
- experimental protocol: BTK inhibitory activity
- Type: biochemical
- measurement parameters: (IC50 lapatinib/IC50 Compound)*100
reported endpoint: BTK Potency

Look over these answered cases.
compound: CC1=C(C(=O)OCc2ccccc2)C(c2cccc(C#N)c2)C(C(=O)OCc2ccccc2)=C(C)N1
target desc: BTK (Homo sapiens, UniProt Q06187)
BTK Potency: 101.99%
//
compound: CCOC(=O)C1=C(C)NC(C)=C(C(=O)OCc2ccccc2)C1c1cccc(C#N)c1 (racemic)
target desc: BTK (Homo sapiens, UniProt Q06187)
BTK Potency: 96.35%
//
compound: COC(=O)C1=C(C)NC(C)=C(C(=O)OCc2ccccc2)C1c1cccc(C#N)c1 (racemic)
target desc: BTK (Homo sapiens, UniProt Q06187)
BTK Potency: 74.91%

### Prompt Would you mind telling me what BTK Potency value was observed for CS(=O)(=O)CCNCc1ccc(-c2ccc3ncnc(Nc4ccc(OCc5cccc(F)c5)c(Cl)c4)c3c2)o1 [Lapatinib, reference compound] ?
### Response 100.0%

###

- System: DU-145
- experimental protocol: NCI single dose (10 µM) SRB screen
- Assay type: cell-based, human
- measurement parameters: prostate cancer, 48 h
In this section, each of the compounds is paired with its reported GI% DU-145.

compound: COC(=O)C1=C(C)NC(C)=C(C(=O)OCc2ccccc2)C1c1cccc(C#N)c1 (racemic)
target desc: DU-145
GI% DU-145: 15%
--
compound: CCOC(=O)C1=C(C)NC(C)=C(C(=O)OCc2ccccc2)C1c1cccc(C#N)c1 (racemic)
target desc: DU-145
GI% DU-145: 42%

### Prompt Would you mind telling me what GI% DU-145 value was observed for CC1=C(C(=O)OCc2ccccc2)C(c2cccc(C#N)c2)C(C(=O)OCc2ccccc2)=C(C)N1 ?
### Response 26%

###

- System: Candida albicans
- experimental protocol: Agar well diffusion method
- measurement parameters: relative to clotrimazole
reported endpoint: % activity index, C. albicans

compound: CCOC(=O)C1=C(C)NC(C)=C(C(=O)OCCOC)C1c1cccc(C#N)c1 (racemic) [Compound 2k]
target desc: Candida albicans
% activity index, C. albicans: 59.2%

### Prompt Identify the measured % activity index, C. albicans of COC(=O)C1=C(C)NC(C)=C(C(=O)OCC(C)C)C1c1cccc(C#N)c1 (racemic) [Compound 2b] for Candida albicans.
### Response 25.9%

### Prompt Same lookup for CC1=C(C(=O)OCc2ccccc2)C(c2cccc(C#N)c2)C(C(=O)OCc2ccccc2)=C(C)N1 [Compound 1g] , please.
### Response 37%

### Prompt Same lookup for COCCOC(=O)C1=C(C)NC(C)=C(C(=O)OC)C1c1cccc(C#N)c1 (racemic) [Compound 2d] , please.
### Response 44.4%

### Prompt Same lookup for COCCOC(=O)C1=C(C)NC(C)=C(C(=O)OCCOC)C1c1cccc(C#N)c1 [Compound 1f] , please.
### Response 66.7%
